- measurement-target: FGFR3 (UniProt P22607)
- Sequence (P22607 whole entry, looked up): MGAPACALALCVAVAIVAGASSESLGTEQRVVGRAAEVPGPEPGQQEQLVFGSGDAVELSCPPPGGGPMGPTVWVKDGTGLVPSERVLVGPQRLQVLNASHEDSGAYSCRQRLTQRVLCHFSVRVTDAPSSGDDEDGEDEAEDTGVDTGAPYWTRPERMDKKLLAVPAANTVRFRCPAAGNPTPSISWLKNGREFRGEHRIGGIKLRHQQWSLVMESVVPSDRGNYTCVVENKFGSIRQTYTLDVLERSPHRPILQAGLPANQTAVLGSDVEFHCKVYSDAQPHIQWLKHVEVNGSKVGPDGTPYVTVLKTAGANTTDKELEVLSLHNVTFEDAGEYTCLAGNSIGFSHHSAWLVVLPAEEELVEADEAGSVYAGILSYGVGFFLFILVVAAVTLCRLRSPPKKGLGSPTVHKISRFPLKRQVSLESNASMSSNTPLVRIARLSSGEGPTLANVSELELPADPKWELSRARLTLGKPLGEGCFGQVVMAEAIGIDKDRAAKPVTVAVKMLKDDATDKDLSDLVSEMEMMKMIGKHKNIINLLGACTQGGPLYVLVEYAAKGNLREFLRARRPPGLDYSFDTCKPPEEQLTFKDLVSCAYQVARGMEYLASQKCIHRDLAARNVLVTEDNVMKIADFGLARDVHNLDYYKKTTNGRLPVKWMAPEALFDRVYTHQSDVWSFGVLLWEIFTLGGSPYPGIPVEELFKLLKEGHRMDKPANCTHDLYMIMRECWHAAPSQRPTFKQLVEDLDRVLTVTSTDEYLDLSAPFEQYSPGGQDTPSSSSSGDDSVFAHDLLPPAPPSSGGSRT
- test-method-notes: phosphorylation enrichment, bacterial display (enrichment ratio); higher = better substrate or ligand; peptides without Tyr show the background;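 note: 11-residue human phosphosite peptides and single-mutation variants displayed on the E. coli surface, counted by deep sequencing, each peptide's frequency after selection divided by its frequency in the unselected input library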;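 note: frequency after pTyr selection over input frequency; kinase dosed for 20-30% of maximal phosphorylation in three min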
phosphorylation enrichment overview
Answer with a number only.

record-sequence	result-type	recorded-result
IDAICYYRMEN [NPHS2_Y194]	phosphorylation enrichment	3.18
GEDEPYAEPFA [APBA1_Y183_S184A_YF]	phosphorylation enrichment	0.872
KPLMPYMRFSR [SMARCE1_Y73_YF]	phosphorylation enrichment	0.547
YRTPGYREVVI [TNS2_Y673_A670T]	phosphorylation enrichment	0.447
LFFFSYLLKNH [PTEN_Y180_V175L_YF]	phosphorylation enrichment	0.671

## Input Read off the recorded phosphorylation enrichment for MAPQMYESHLP [NCAPD2_Y6_F8S]
## Output 0.657
